From: patent EP0489877B1

Test system: fibroblasts
EXPERIMENTAL_PROTOCOL: Antiproliferative assay (inhibition of cell proliferation, procedure of Pledger et al.)
Assay type: cell-based
CONDITION_PARAMETERS: percent inhibition at the maximum concentration tested
From the text: […]
RESULT_TYPE: Antiproliferative Assay Data Inhibition (%)
Lab book: enter the figure in %, no units written.

Task: Which Antiproliferative Assay Data Inhibition (%) is reported for this compound? `O=c1cc(CN2CCOCC2)oc(-c2ccc(O)cc2)c1`
Output: 0

Task: Consider the compound `O=c1cc(-c2ccccc2OCc2ccccc2)oc(N2CCOCC2)c1` and give its measured Antiproliferative Assay Data Inhibition (%).
Output: 88

Task: Would you mind telling me what Antiproliferative Assay Data Inhibition (%) value was observed for `CC(C)(C)C(=O)COc1ccc(-c2cc(=O)cc(N3CCOCC3)o2)cc1` ?
Output: 66

Task: What value of measured Antiproliferative Assay Data Inhibition (%) is listed for `O=c1cc(-c2ccccc2O)oc(N2CCOCC2)c1` ?
Output: 34

Task: I am curious: what Antiproliferative Assay Data Inhibition (%) value has been reported for `O=c1cc(-c2ccc(OCc3cccnc3)cc2)oc(N2CCOCC2)c1` ?
Output: 77

Task: Endpoint output: Antiproliferative Assay Data Inhibition (%) of `O=c1cc(-c2ccc(CN3CCCC3)cc2)oc(N2CCOCC2)c1` . Value?
Output: 12

Task: Can you look up the measured Antiproliferative Assay Data Inhibition (%) of `O=c1cc(-c2cccc(OCc3ccccc3)c2)oc(N2CCOCC2)c1` for me?
Output: 96

Task: Given the compound `O=c1cc(-c2cccc(O)c2)oc(N2CCOCC2)c1` , what is its reported Antiproliferative Assay Data Inhibition (%)?
Output: 73

Task: For `O=c1cc(-c2ccc(OCCN3CCCCC3)cc2)oc(N2CCOCC2)c1` , what is its reported Antiproliferative Assay Data Inhibition (%)?
Output: 30

Task: Given `O=c1cc(-c2ccc(CN3CCCCC3)cc2)oc(N2CCOCC2)c1` , state its recorded Antiproliferative Assay Data Inhibition (%).
Output: 8

Task: Fill in the blank: the reported Antiproliferative Assay Data Inhibition (%) of `O=c1cc(CN2CCCCC2)oc(-c2ccc(OCc3ccccc3)cc2)c1` is ____.
Output: 20

Task: For the compound shown here, `O=c1cc(-c2ccc(CO)cc2)oc(N2CCOCC2)c1` , give the reported Antiproliferative Assay Data Inhibition (%).
Output: 20

Task: Need Antiproliferative Assay Data Inhibition (%), item `O=c1cc(-c2ccc(OCc3ccccn3)cc2)oc(N2CCOCC2)c1`
Output: 72

Task: Report Antiproliferative Assay Data Inhibition (%) for `O=c1cc(CN2CCOCC2)oc(-c2ccc(OCc3ccccc3)cc2)c1` please.
Output: 36

Task: Quick check: Antiproliferative Assay Data Inhibition (%) of `O=c1cc(-c2ccc(F)cc2)oc(N2CCOCC2)c1` ?
Output: 25

Task: Which Antiproliferative Assay Data Inhibition (%) is listed for `CN1CCN(Cc2ccc(-c3cc(=O)cc(N4CCOCC4)o3)cc2)CC1` ?
Output: 9

Task: So what does the record say about Antiproliferative Assay Data Inhibition (%) for `O=c1cc(-c2ccc(O)cc2)oc(N2CCOCC2)c1` ?
Output: 54

Task: Param item = O=c1cc(-c2ccc(CN3CCCCC3CO)cc2)oc(N2CCOCC2)c1 (stereo not drawn) ; retrieve measured Antiproliferative Assay Data Inhibition (%).
Output: 13
